assayOverview: NCI Yeast Anticancer Drug Screen. Data for the cln2 rad14 strain (AID 165);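 also: 0% = growth equal to vehicle treated cultures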
assayConditions: S. cerevisiae cln2 rad14 strain, at 50.0 µM, active compounds read high
About 79,000 compounds went through this panel and 15% of them were active in at least one assay; those are over-represented in the sample as a whole.

compound	growth inhibition, %
O=C(CBr)OCCOC(=O)CBr	14.4
CC1(C(=N)N)CCOC1=O (stereo not given)	4.5
CCC(C)C(=O)OC1CC2(C)C(c3ccoc3)OC(=O)CC23OC2(C)OC34C(OC(=O)C(C)C)C3(O)C(OC(=O)C5(C)OC5C)C5(C)CC3(O)C(C)(C5CC(=O)OC)C14O2 (stereo not given)	26.9
COc1ccc([Se]c2ccc(OC)cc2OC)c(OC)c1	-18.3
CCCCC(CC)COP(OCC(CC)CCCC)OCC(CC)CCCC (stereo not given)	-37.5

----------
assayOverview: NCI Yeast Anticancer Drug Screen. Data for the sgs1 mgt1 strain (AID 161);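 also: 0% = growth of cultures given vehicle only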
assayConditions: S. cerevisiae sgs1 mgt1 strain, at 50.0 µM, active compounds read high
Compounds without any hit were thinned out: in the full panel of roughly 79,000, 15% have a hit.
growth inhibition for assorted compounds
valueKind: growth inhibition (%)

> print(dat)
                                    compound          valuekind  numericvalue
 1  [I][Ni][I].c1ccc([PH+](c2ccccc2)c2ccccc2)cc1.c1ccc([PH+](c2ccccc2)c2ccccc2)cc1  growth inhibition            64
 2  N#C[CH2][Sn]([c]1ccccc1)([c]1ccccc1)[c]1ccccc1  growth inhibition            99
 3  CCOC(=O)C(Cc1ccc(N(CCCl)CCCl)cc1)NC(=O)C(NC(C)=O)C(C)C (stereo unspecified)  growth inhibition          33.2
 4  NC(CP(=O)(O)O)C(=O)O (stereo unspecified)  growth inhibition         -31.1
 5  O=C/C=C/c1ccccc1.[Fe+2].[c-]1[c-][c-][cH-][c-]1.[c-]1[c-][c-][cH-][c-]1  growth inhibition          1.65
 6  CC/C(=C(/CC)c1ccc(OP(=O)(Cl)N(CCCl)CCCl)cc1)c1ccc(OP(=O)(Cl)N(CCCl)CCCl)cc1 (stereo unspecified)  growth inhibition          -8.3
 7  O=[N+]([O-])c1ccc(/C=C/C=C/C=C/C=C/c2ccc(S(=O)(=O)F)cc2Cl)c(Cl)c1  growth inhibition         -14.8
 8  CC1=C(C)CN(CCc2c[nH]c3ccccc23)C(C#N)C1 (stereo unspecified)  growth inhibition          3.95
 9  CNC(=O)N1CN(c2ccccc2)C2(CCN(CCCC3(c4ccc(F)cc4)OCCO3)CC2)C1=O  growth inhibition          -4.4
10             C/C=C/CC1(CC)C(=O)NC(=O)NC1=O  growth inhibition          11.8
11  COC12CC3(C)C(C4=CC(=O)OC4)CCC3(O)C3CCC4=CC(=O)CCC4(CO1)C32 (stereo unspecified)  growth inhibition         -11.4
12                        CC(C)c1ccc(CCN)cc1  growth inhibition         -19.8
13               CC1=NCCc2c1[nH]c1cc(O)ccc21  growth inhibition         -12.6
14  C[N+](C)(Cc1ccc([N+](=O)[O-])cc1)c1ccc(N(CCCl)CCCl)cc1  growth inhibition           -33
15     Cc1ccc2c(c1)N(CCCl)c1c(ccc3ccccc13)S2  growth inhibition         -6.55
16  COc1ccc2c(c1)C1(C)CCN(CCc3ccccc3)C(C2)C1C (stereo unspecified)  growth inhibition          20.7
17                CC(=O)c1cccc(S(=O)(=O)F)c1  growth inhibition         -3.25
18  C[N+]1([O-])C2CCC1CC(O)C2 (stereo unspecified)  growth inhibition          1.45
19  O=[As](O)(O)c1ccc(N=Nc2ccc([As](=O)(O)O)cc2)cc1  growth inhibition         -15.9
20    [Cl][Co][Br].[NH-]CC[NH-].[NH-]CC[NH-]  growth inhibition          13.9
21            CCCCOP(=O)(Nc1ccc(Cl)cc1)OCCCC  growth inhibition          99.5

----------
assayOverview: NCI Yeast Anticancer Drug Screen. Data for the mlh1 rad18 strain (AID 175)
assayConditions: S. cerevisiae mlh1 rad18 strain growth inhibition; at 50.0 µM; active compounds read high
The panel holds about 79,000 compounds, 15% with a hit somewhere; the sample as a whole holds those more often.
Threshold rule: growth inhibition greater than or equal to 10% is met; below that, not met.

> print(dat)
                                   molecule  assignedlabel
1  O=C(NC(c1ccccc1)(c1ccccc1)c1ccccc1)N(CCCl)CCCl        not met
2  Nc1cc(S(=O)(=O)O)cc2cc(S(=O)(=O)O)c(N=Nc3ccc([As]=O)cc3)c(O)c12 (stereo not given)        not met
3  CN(C)CCNC(=O)c1ccc(N(CCCl)CCCl)c([N+](=O)[O-])c1[N+](=O)[O-]            met
4  CCCOC(C(=O)OC1CCC2CCC1N2C)(c1ccccc1)c1ccccc1 (stereo not given)            met

----------
assayOverview: NCI Yeast Anticancer Drug Screen. Data for the bub3 strain (AID 167)
assayConditions: S. cerevisiae bub3 mutant strain, at 50.0 µM, active compounds read high
This is part of a sample that, as a whole, favours compounds with a hit. Of some 79,000 tested, about 15% had one in any assay.
Threshold rule: growth inhibition greater than or equal to 10% is Met; below that, Not met.

compound	assignedLabel
O=C1NCC2C3CCC(O3)C12 (centres undefined)	Not met
BrCCCBr	Met
CC(C)N(C(C)C)[PH+]1O[PH+](N(C(C)C)C(C)C)O[PH+](N(C(C)C)C(C)C)O[PH+](N(C(C)C)C(C)C)O[PH+](N(C(C)C)C(C)C)O1.[C-]#[O+].[C-]#[O+].[C-]#[O+].[C-]#[O+].[C-]#[O+].[C-]#[O+].[C-]#[O+].[Cr].[Cr] (centres undefined)	Not met
C1CN1[PH+](N1CC1)N1CC1.[C-]#[O+].[C-]#[O+].[C-]#[O+].[C-]#[O+].[C-]#[O+].[W]	Met
O=[N+]([O-])c1ccc2nc(-c3ccc(S(=O)(=O)F)cc3)cc(Cl)c2c1	Met
CCN(CC)CCN(CC)CC.CCN(CC)CCN(CC)CC.[Cu+2].[Cu+2].[O-][Cl+3]([O-])([O-])[O-].[OH3+].[OH3+]	Met
O=C1c2ccccc2C2(O)C3C=CCCN3CN12 (centres undefined)	Not met
O=C(Nc1cccc(S(=O)(=O)F)c1)/C(=C/c1ccc([N+](=O)[O-])cc1)c1ccccc1	Met
CCOP(=S)(NCCCOC)OCC	Met

----------
assayOverview: NCI Yeast Anticancer Drug Screen. Data for the bub3 strain (AID 167)
assayConditions: S. cerevisiae bub3 mutant strain, at 50.0 µM, active compounds read high
About 79,000 compounds went through this panel and 15% of them were active in at least one assay; those are over-represented in the sample as a whole.
valueKind: growth inhibition (%)

> print(dat)
                                    compound  numericvalue
 1  O=[C-]/C=C/c1ccccc1.[C-]#[O+].[C-]#[O+].[Fe+2].[c-]1ccccc1          -7.1
 2                                C=COC(N)=O          0.05
 3          CCCCN1C(=O)CC(=O)N(c2ccccc2)C1=O         -14.4
 4  CC1(C)CN=C(NN=C(/C=C/c2ccc(C(F)(F)F)cc2)/C=C/c2ccc(C(F)(F)F)cc2)NC1          32.2
 5  O=C1c2ccccc2C(=O)N1N1CC1c1ccccc1 (stereo not drawn)           6.5
 6                                  COC(N)=O          -2.6
 7            O=P(Oc1ccccc1)(N1CCCC1)N1CCCC1          36.5
 8                          Fc1ccc(N=C=S)cc1          -6.2
 9  C=CCSc1nc2ccccc2c(=O)n1-c1cc(OC)c(Cl)cc1OC          42.5
10  COc1ccc2c(c1OC)C[N+]1(C)CCc3cc4c(cc3C1=C2)OCO4 (stereo not drawn)          -2.2
11                O=c1cc(N2CCNCC2)nc2ccccn12          6.95
12        N#CC(N)c1ccccc1 (stereo not drawn)          14.1
13        COc1ccc(/C=C(/C)[N+](=O)[O-])cc1OC          99.7
14               Cc1cc(C)[c]([Hg][Cl])c(C)c1          98.7
15               CCCN(C)C(C)(C)C(=O)c1ccccc1         -18.9
16           CCC1(CNC(=O)CN)C(=O)NC(=O)NC1=O           2.7
17  CC[CH2][Sn]([Br])([CH2]CC(=O)OC)[CH2]CC(=O)OC          9.85
18           CC1CCNC(C)C1 (stereo not drawn)          17.9
19  Cc1ccc(C(=O)C(C)N)cc1C (stereo not drawn)           1.6
20                  C[As](C)(=S)[As](C)(C)=S          66.7
21      CCC(C)c1ccc(O)cc1 (stereo not drawn)            -5
22                    N#CC(C#N)=Cc1ccc(F)cc1          16.1
23       COC1CCC2NCCNC2C1 (stereo not drawn)          -8.7

Reference source: PubChem BioAssay (NCI)
